Tested on: 485368-065-R4-J2-PDC spheroids with HUVEC/MSC, viability;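 further: spheroids exposed to compounds for seven days before readout; 100% = DMSO vehicle control wells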
assay-info: Anticancer human tumor 485368-065-R4-J2-PDC patient-derived pancreatic carcinoma cell line growth inhibition [TAK]
applied-conditions: second compound 0.3 µM; first compound 0.001 µM; stronger effect = lower value
value-type: viability, T/C (%)

1. CC(C)n1nc(-c2ccc3oc(N)nc3c2)c2c(N)ncnc21 + CC(C)NCC(C(=O)N1CCN(c2ncnc3c2C(C)CC3O)CC1)c1ccc(Cl)cc1 :: 88
2. COC1CC2CCC(C)C(O)(O2)C(=O)C(=O)N2CCCCC2C(=O)OC(C(C)CC2CCC(OCCO)C(OC)C2)CC(=O)C(C)C=C(C)C(O)C(OC)C(=O)C(C)CC(C)C=CC=CC=C1C (centres undefined) + CC(C)NCC(C(=O)N1CCN(c2ncnc3c2C(C)CC3O)CC1)c1ccc(Cl)cc1 :: 102
3. CC(C)CC(NC(=O)C(Cc1ccccc1)NC(=O)c1cnccn1)B(O)O (centres undefined) + CC(C)NCC(C(=O)N1CCN(c2ncnc3c2C(C)CC3O)CC1)c1ccc(Cl)cc1 :: 92.2
4. CC(C)CC(NC(=O)CNC(=O)c1cc(Cl)ccc1Cl)B1OC(=O)CC(CC(=O)O)(C(=O)O)O1 (centres undefined) + CC(C)NCC(C(=O)N1CCN(c2ncnc3c2C(C)CC3O)CC1)c1ccc(Cl)cc1 :: 93.9
